Values were extracted from patent US20230203162A1.

Biological target: T1, recombinant human MSLN (purchased from Peprotech) (human, UniProt Q13421 296-598, limits assumed)
T1 construct: Bought protein; also called recombinant human mesothelin
Experiment: SPR, MSLN immobilized on CM5, scFv as analyte, 1:1 Langmuir
measurement.kind: log10 of koff (log10 of the value in s⁻¹)

* anti-MSLN scFv PRO1783 (scFv, also called 54-01-G02-sc01) scFv: DIQMTQSPSSLSASVGDRVTITCQASQNIYSNLAWYQQKPGKAPKLLIYDASDLASGVPSRFSGSGSGTDFTLTISSLQPEDFATYYCQQVRSSSDIDNPFGTGTKVTVLGGGGGSGGGGSGGGGSGGGGSQVQLVESGGGLVQPGGSLRLSCAASGFSLSSYAMGWVRQAPGKGLEWIGYISTINNTYYASWAKGRFTISRDNSKNTVYLQMNSLRAEDTAVYYCAREIRSGWVDYGFSIWGQGTLVTVSS | -2.64
* anti-MSLN scFv PRO2309 (scFv, VL/VH interdomain disulfide variant; also called 54-32-A07-sc09; PRO1925-S14R-T87R-T22K-DIS) scFv: ALQMTQSPSSLSARVGDRVTIKCQASQSISNYLAWYQQKPGKPPKFLIYDASDLASGVPSRFSGSGSGRDFTLTISSLQPEDFATYYCQQVYDSNNVENVFGCGTKVTVLGGGGGSGGGGSGGGGSGGGGSQSQLVESGGGLVQPGGSLRLSCAVSGFSLSSYAMGWVRQAPGKCLEYIGYISKIGTTYYASWAKGRFTISKDNSKNTVYLQMNSLRAEDTAVYFCARGSSSGGYLDDGFDPWGQGTLVTVSS | -2.86
* anti-MSLN scFv PRO2306 (scFv, also called 54-32-A07-sc06; PRO1925-S14R-T87R-T22K) scFv: ALQMTQSPSSLSARVGDRVTIKCQASQSISNYLAWYQQKPGKPPKFLIYDASDLASGVPSRFSGSGSGRDFTLTISSLQPEDFATYYCQQVYDSNNVENVFGTGTKVTVLGGGGGSGGGGSGGGGSGGGGSQSQLVESGGGLVQPGGSLRLSCAVSGFSLSSYAMGWVRQAPGKGLEYIGYISKIGTTYYASWAKGRFTISKDNSKNTVYLQMNSLRAEDTAVYFCARGSSSGGYLDDGFDPWGQGTLVTVSS | -3.06
* anti-MSLN scFv PRO1922 (scFv, also called 54-21-H03-sc01) scFv: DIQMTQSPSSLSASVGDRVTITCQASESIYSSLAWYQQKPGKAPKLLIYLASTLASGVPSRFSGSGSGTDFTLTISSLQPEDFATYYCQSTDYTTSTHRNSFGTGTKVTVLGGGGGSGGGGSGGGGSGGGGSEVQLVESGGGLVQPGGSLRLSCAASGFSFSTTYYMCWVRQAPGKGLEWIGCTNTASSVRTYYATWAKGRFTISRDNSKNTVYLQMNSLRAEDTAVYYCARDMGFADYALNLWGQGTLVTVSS | -3.89
* reference anti-MSLN scFv PRO1795 (scFv, also called 54-22-H03-sc01) scFv: DIQMTQSPSSLSASVGDRVTITCQASESIGNYLAWYQQKPGKAPKLLIYSASTLASGVPSRFSGSGSGTDFTLTISSLQPEDFATYYCQSTDYGDSYIFGTGTKVTVLGGGGGSGGGGSGGGGSGGGGSEVQLVESGGGLVQPGGSLRLSCAASGISVSNDYYMCWVRQAPGKGLEWIGCISTYIGNTHYASWAKGRFTISRDNSKNTVYLQMNSLRAEDTAVYYCAKNAGYPGYRYAIDLWGQGTLVTVSS | -3.74
* anti-MSLN scFv PRO1925 (scFv, also called 54-32-A07-sc02) scFv: ALQMTQSPSSLSASVGDRVTITCQASQSISNYLAWYQQKPGKPPKFLIYDASDLASGVSSRFSGSGSGTDFTLTISSLQPEDFATYYCQQVYDSNNVENVFGTGTKVTVLGGGGGSGGGGSGGGGSGGGGSQSQLVESGGGLVQPGGSLRLSCAVSGFSLSSYAMGWVRQAPGKGLEYIGYISKIGTTYYASWAKGRFTISKDNSKNTVYLQMNSLRAEDTAVYFCARGSSSGGYLDDGFDPWGQGTLVTVSS | -3.10
